System: ST8814
protocolNotes: drug sensitivity score (DSS, CellTiter-Glo viability, 72 h) (DSS (dimensionless)); higher = more sensitive; extreme values may be limits of the assay
Would you mind telling me the reported drug sensitivity score of each entry?

Form: item C[C@]12CC[C@H](O)CC1=CC[C@@H]1[C@@H]2CC[C@]2(C)C(c3cccnc3)=CC[C@@H]12 [Abiraterone] (max concentration tested 5000 nM) ; test system ST8814; drug sensitivity score: 0

Form: item COc1cc2nccc(Oc3ccc(NC(=O)C4(C(=O)Nc5ccc(F)cc5)CC4)cc3)c2cc1OC [Cabozantinib] (max concentration tested 1000 nM) ; test system ST8814; drug sensitivity score: 2.2

Form: item N[C@@H](CSC(c1ccccc1)(c1ccccc1)c1ccccc1)C(=O)O [S-trityl-L-cysteine] (max concentration tested 40000 nM) ; test system ST8814; drug sensitivity score: 0

Form: item CS(=O)(=O)c1ccc(C(=O)Nc2ccc(Cl)c(-c3ccccn3)c2)c(Cl)c1 [Vismodegib] (max concentration tested 10000 nM) ; test system ST8814; drug sensitivity score: 0

Form: item CNNCc1ccc(C(=O)NC(C)C)cc1 [Procarbazine] (max concentration tested 10000 nM) ; test system ST8814; drug sensitivity score: 0

Form: item Cn1nnc2c(C(N)=O)ncn2c1=O [Temozolomide] (max concentration tested 10000 nM) ; test system ST8814; drug sensitivity score: 0.0241

###

Test system: HS-PSS
protocolNotes: drug sensitivity score (DSS, CellTiter-Glo viability, 72 h) (DSS (dimensionless)); higher = more sensitive; extreme values may be limits of the assay
Would you mind telling me the reported drug sensitivity score of each entry?
In your answer, state the number alone without any accompanying words.

The reported value for Cc1nn(C)c(COc2ccc(N3CCN(S(=O)(=O)N(C)C)CC3)cc2)c1-c1cccc2c(CCCOc3cccc4ccccc34)c(C(=O)O)n(CCN3CCOCC3)c12 (max concentration tested 50000 nM) in terms of drug sensitivity score is 4.52

The reported value for O=C(O)c1ccc(Nc2ncc3c(n2)-c2ccc(Cl)cc2C(c2c(F)cccc2F)=NC3)cc1 [MLN-8054] (max concentration tested 10000 nM) in terms of drug sensitivity score is 3.57

The reported value for Cn1nccc1Nc1nccc(-c2ccn([C@H](CO)c3ccc(Cl)c(F)c3)c(=O)c2)n1 [GDC-0994] (max concentration tested 10000 nM) in terms of drug sensitivity score is 0

###

Tested on: HSC1
protocolNotes: relative IC50 (inflection point of fitted dose-response curve, CellTiter-Glo viability, 72 h; top asymptote may be below 50% inhibition); higher = less potent
Range-based classes on measured relative IC50: bottom range (below 50 nM), center range (50 nM to below 800 nM), top range (800 nM or more)

IN: The entry to classify is C[C@]1(O)C[C@@H](c2nc(-c3ccc4ccc(-c5ccccc5)nc4c3)c3c(N)nccn32)C1 ; which class holds it?
OUT: bottom range

IN: The entry to classify is CC(C)(C)Cn1c(N)nc2ccc(-c3[nH]c(C(C)(C)C)nc3-c3ccc(F)cc3)nc21 ; which class holds it?
OUT: top range

IN: The entry to classify is CC[C@@]1(O)C(=O)OCc2c1cc1n(c2=O)Cc2cc3ccccc3nc2-1 ; which class holds it?
OUT: bottom range

IN: The entry to classify is CC[C@@H]1C(=O)N(C)c2cnc(Nc3ccc(C(=O)N[C@H]4CC[C@H](N5CCN(CC6CC6)CC5)CC4)cc3OC)nc2N1C(C)C ; which class holds it?
OUT: bottom range

IN: The entry to classify is CC(C)C[C@@H](C(=O)N[C@H](C(=O)OC1CCCC1)c1ccccc1)[C@H](O)C(=O)NO ; which class holds it?
OUT: center range

IN: The entry to classify is COc1c(C)cnc(Cn2cnc3c(Cl)nc(N)nc32)c1C ; which class holds it?
OUT: center range

IN: The entry to classify is CN1CCc2c(c3ccccc3n2Cc2ccc(C(=O)NO)cc2)C1 ; which class holds it?
OUT: top range

IN: The entry to classify is CN[C@@H](C)C(=O)N[C@H]1CN(C(=O)CC(C)C)CC[C@H]2CC[C@@H](C(=O)NC(c3ccccc3)c3ccccc3)N2C1=O ; which class holds it?
OUT: top range

IN: The entry to classify is CCCCC(=O)OCC(=O)[C@]1(O)Cc2c(O)c3c(c(O)c2[C@@H](O[C@H]2C[C@H](NC(=O)C(F)(F)F)[C@H](O)[C@H](C)O2)C1)C(=O)c1c(OC)cccc1C3=O ; which class holds it?
OUT: center range

IN: The entry to classify is CC/C(=C(\c1ccc(O)cc1)c1ccc(OCCN(C)C)cc1)c1ccccc1 [4-hydroxytamoxifen] ; which class holds it?
OUT: top range

IN: The entry to classify is CN1CCN(c2nc(C3=C(c4c[nH]c5ccccc45)C(=O)NC3=O)c3ccccc3n2)CC1 ; which class holds it?
OUT: top range

Values were extracted from the supplement of paper PMC5579334.
